# Stated Conditions: human gut metagenome, 24 h, 2 µM; further: call rule not given here
Readout Type: Bacterial Biotransformation

COc1ccc2[nH]c([S+]([O-])Cc3ncc(C)c(OC)c3C)nc2c1 (stereo unspecified) [OMEPRAZOLE]	Compound metabolized
CCOc1ccc(NC(C)=O)cc1 [PHENACETIN]	Compound NOT metabolized
CC[C@@H](CO)NC(=O)[C@@H]1C=C2c3cccc4c3c(cn4C)C[C@H]2N(C)C1.O=C(O)/C=C\C(=O)O [METHYSERGIDE MALEATE]	Compound NOT metabolized
CC(C(=O)O)c1ccc2c(c1)Cc1cccnc1O2 (stereo unspecified) [PRANOPROFEN]	Compound metabolized
CS(=O)(=O)O.O.O.O.O=C1Cc2cc(CCN3CCN(c4nsc5ccccc45)CC3)c(Cl)cc2N1 [ZIPRASIDONE MESYLATE]	Compound NOT metabolized

Could you now consider this next compound?
In: Name the reported Bacterial Biotransformation value associated with the compound CC(C)(C(=O)O)c1ccc(C(O)CCCN2CCC(C(O)(c3ccccc3)c3ccccc3)CC2)cc1 (stereo unspecified) [FEXOFENADINE]
Out: Compound NOT metabolized

* * *

# Test Summary: The drug is tested on WLS-006 corresponding to human gut metagenome with ENA study accession number: PRJEB37062 and ENA sample accession number: ERS12561741 for biotransformation under anaerobic condition. The drug concentrations were measured over 9 timepoints collected between 0 and 24 hours of incubation by liquid-chromatography-coupled mass spectrometry (LC–MS)
# Stated Conditions: 2 µM
Readout Type: Bacterial Biotransformation

Example results:
CS(=O)(=O)O.OC(CCN1CCCCC1)(c1ccccc1)c1ccccc1 [PRIDINOL METHANESULFONATE]	Compound metabolized
CC(CN(C)C)CN1c2ccccc2CCc2ccccc21.O=C(O)/C=C\C(=O)O (stereo not drawn) [TRIMIPRAMINE MALEATE]	Compound metabolized
COc1ccc2[nH]c([S+]([O-])Cc3ncc(C)c(OC)c3C)nc2n1 (stereo not drawn)	Compound metabolized
COc1cc2c(c(OC)c1OC)-c1ccc(OC)c(=O)cc1[C@@H](NC(C)=O)CC2	Compound metabolized
COC(=O)[C@H]1[C@H]2C[C@@H]3c4[nH]c5cc(OC)ccc5c4CCN3C[C@H]2C[C@@H](OC(=O)c2cc(OC)c(OC)c(OC)c2)[C@@H]1OC	Compound metabolized
CN1C(C(=O)Nc2ccccn2)=C(O)c2sccc2S1(=O)=O	Compound NOT metabolized
COc1ccccc1OCC(O)COC(N)=O (stereo not drawn)	Compound NOT metabolized
Cc1ccc(S(=O)(=O)NC(=O)NN2CCCCCC2)cc1 [TOLAZAMIDE]	Compound metabolized
CC(C)(Oc1ccc(CCNC(=O)c2ccc(Cl)cc2)cc1)C(=O)O [BEZAFIBRATE]	Compound metabolized
CC(C)(C)NC[C@H](O)COc1ccccc1C1CCCC1.CC(C)(C)NC[C@H](O)COc1ccccc1C1CCCC1.O=S(=O)(O)O [PENBUTOLOL SULFATE]	Compound metabolized

I have 8 compounds here; please give me Bacterial Biotransformation for each one.
1. COc1cc2nc(N3CCN(C(=O)c4ccco4)CC3)nc(N)c2cc1OC
2. Cc1cc2c(cc1S(N)(=O)=O)S(=O)(=O)CCC2
3. CCN(CC)CCOCCOC(=O)C1(c2ccccc2)CCCC1.O=C(O)CC(O)(CC(=O)O)C(=O)O [CARBETAPENTANE CITRATE]
4. COCCc1ccc(OCC(O)CNC(C)C)cc1.COCCc1ccc(OCC(O)CNC(C)C)cc1.O=C(O)C(O)C(O)C(=O)O (stereo not drawn) [METOPROLOL TARTRATE]
5. COC(=O)Nc1nc2ccc(C(=O)c3ccccc3)cc2[nH]1
6. CC(Oc1c(Cl)cccc1Cl)C1=NCCN1 (stereo not drawn)
7. O=C1NCC2(CCN(CCc3ccccc3)CC2)O1 [FENSPIRIDE]
8. CCCCCOC(=O)Nc1nc(=O)n([C@@H]2O[C@H](C)[C@@H](O)[C@H]2O)cc1F

Out:
1: Compound NOT metabolized; 2: Compound NOT metabolized; 3: Compound metabolized; 4: Compound NOT metabolized; 5: Compound metabolized; 6: Compound NOT metabolized; 7: Compound NOT metabolized; 8: Compound metabolized

* * *

# Stated Conditions: human gut metagenome, 24 h, 2 µM
Readout Type: Bacterial Biotransformation

Example results:
Cc1nc2n(c(=O)c1CCN1CCC(c3noc4cc(F)ccc34)CC1)CCCC2	Compound metabolized
CCCCc1nc(Cl)c(CO)n1Cc1ccc(-c2ccccc2-c2nn[nH]n2)cc1	Compound metabolized
CCCC(=O)Nc1ccc(OCC(O)CNC(C)C)c(C(C)=O)c1 (configuration not stated)	Compound NOT metabolized
CN(C)C(=O)C(CCN1CCC(O)(c2ccc(Cl)cc2)CC1)(c1ccccc1)c1ccccc1 [LOPERAMIDE]	Compound metabolized
CCN(CC)CCNC(C(=O)OCCC(C)C)c1ccccc1.Cl.Cl (configuration not stated)	Compound metabolized
CCC(=O)NCC[C@@H]1CCc2ccc3c(c21)CCO3	Compound metabolized

I have 4 compounds here; please give me Bacterial Biotransformation for each one.
1. CCc1nn(CCCN2CCN(c3cccc(Cl)c3)CC2)c(=O)n1CCOc1ccccc1
2. Nc1ccc(/N=N/c2ccccc2)c(N)n1
3. CCCC1O[C@@H]2C[C@H]3[C@@H]4CCC5=CC(=O)C=C[C@]5(C)[C@H]4[C@@H](O)C[C@]3(C)[C@]2(C(=O)CO)O1 (some centres not stated) [BUDESONIDE]
4. CC(C)(C(=O)O)c1ccc(C(O)CCCN2CCC(C(O)(c3ccccc3)c3ccccc3)CC2)cc1 (configuration not stated) [FEXOFENADINE]

Out:
["Compound NOT metabolized", "Compound metabolized", "Compound metabolized", "Compound NOT metabolized"]

I have 2 compounds here; please give me Bacterial Biotransformation for each one.
1. CCN(CC)C(=O)/C(C#N)=C/c1cc(O)c(O)c([N+](=O)[O-])c1
2. Nc1nc2ccc(OC(F)(F)F)cc2s1

Out:
1. Compound metabolized
2. Compound metabolized

* * *

# Test Summary: The drug is tested on Z-022 corresponding to mouse gut metagenome with ENA study accession number: PRJEB37062 and ENA sample accession number: ERS12561821 for biotransformation under anaerobic condition. The drug concentrations were measured over 9 timepoints collected between 0 and 24 hours of incubation by liquid-chromatography-coupled mass spectrometry (LC–MS)
# Stated Conditions: 2 µM
Readout Type: Bacterial Biotransformation

NC12CC3CC(CC(C3)C1)C2	Compound metabolized
N#Cc1ccc(C(c2ccc(C#N)cc2)n2cncn2)cc1	Compound metabolized
Cc1ccnc2c1NC(=O)c1cccnc1N2C1CC1	Compound NOT metabolized
CN(C)CC(c1ccc(O)cc1)C1(O)CCCCC1.O=C(O)CCC(=O)O (configuration not stated) [DESVENLAFAXINE SUCCINATE]	Compound NOT metabolized
CCN(CC)C(=O)/C(C#N)=C/c1cc(O)c(O)c([N+](=O)[O-])c1	Compound metabolized
CNC(=C[N+](=O)[O-])NCCSCc1ccc(CN(C)C)o1	Compound metabolized

In: Name the reported Bacterial Biotransformation value associated with the compound O=c1[nH]c2ccccc2n1CCCN1CCC(n2c(=O)[nH]c3cc(Cl)ccc32)CC1
Out: Compound NOT metabolized

* * *

# Stated Conditions: human gut metagenome, 24 h, 2 µM
Readout Type: Bacterial Biotransformation

COC(=O)Nc1nc2ccc(C(=O)c3ccccc3)cc2[nH]1 [MEBENDAZOLE]	Compound metabolized
CN1CCc2cccc3c2[C@H]1Cc1ccc(O)c(O)c1-3 [APOMORPHINE]	Compound NOT metabolized
NC(=O)N1c2ccccc2CC(=O)c2ccccc21 [OXCARBAZEPINE]	Compound NOT metabolized
CCN(CC)C(C)CN1c2ccccc2Sc2ccccc21 (centres undefined) [ETHOPROPAZINE]	Compound metabolized

* * *

# Test Summary: The drug is tested on WLS-240 corresponding to human gut metagenome with ENA study accession number: PRJEB37062 and ENA sample accession number: ERS12561773 for biotransformation under anaerobic condition. The drug concentrations were measured over 9 timepoints collected between 0 and 24 hours of incubation by liquid-chromatography-coupled mass spectrometry (LC–MS)
# Stated Conditions: 2 µM
Readout Type: Bacterial Biotransformation

Example results:
O=P(O)(O)O.c1ccc(CN(CC2=NCCN2)c2ccccc2)cc1 [ANTAZOLINE PHOSPHATE]	Compound metabolized
CN1C(=O)CCS(=O)(=O)C1c1ccc(Cl)cc1 (stereo unspecified)	Compound metabolized
Cc1cn([C@H]2C[C@H](N=[N+]=[N-])[C@@H](CO)O2)c(=O)[nH]c1=O	Compound NOT metabolized
O=c1n(CCCN2CCN(c3cccc(Cl)c3)CC2)nc2ccccn12	Compound metabolized
CC(C)c1c(C(=O)Nc2ccccc2)c(-c2ccccc2)c(-c2ccc(F)cc2)n1CC[C@@H](O)C[C@@H](O)CC(=O)O	Compound metabolized

Could you now consider this next compound?
In: Name the reported Bacterial Biotransformation value associated with the compound CC(C)N(CCC(C(N)=O)(c1ccccc1)c1ccccn1)C(C)C.O=P(O)(O)O (stereo unspecified) [DISOPYRAMIDE PHOSPHATE]
Out: Compound NOT metabolized
